- test_protocol: AP1 Signaling Pathway (AID 357);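 note: ME-180 reporter cells stimulated with EGF at its EC50 level; % is set by controls: 0 for no effect and ±100 for the full control effect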
- recorded_conditions: ME-180 AP-1-bla reporter, EGF-induced, beta-lactamase ratio, 5 h; at 7.69 µM (top of the series) unless noted
Results filed as inconclusive are left out. The source made the active and inactive calls. Calls come from the whole dose curve; as a rule, active = well fitted curve in either direction with a large enough effect (not every such curve was filed as active); inconclusive = small, poorly fitted or top-dose-only effect, or another doubt; inactive = flat fitted curve, though single readings scatter.
Please provide measured activity change, negative = inhibition for the entries that follow.

Example results:
C[N+](C)(C)c1cc2c(nn1)Nc1ccccc1S2 | -0.66% (inactive)
COc1cc2c(cc1O)[C@@H](c1cc(O)c(O)c(OC)c1)[C@@](O)(C(=O)O)[C@@H](CO)[C@@H]2O | 0.0448% (inactive)
Clc1cc2c(c(CSC3=NCN(CC4CC4)CN3)c1)OCOC2 | 5.83% (inactive)
O=C(O)c1ccc(C(=O)c2ccccc2)c(C(=O)O)c1 | 21.3% (inactive)

For every item below, please supply its activity change, negative = inhibition.
1. O=C1C(=O)c2ccccc2C(O)=C1C(C1=C(O)c2ccccc2C(=O)C1=O)c1ccc(Cl)cc1
2. OCCN(CCO)c1ncnc2nc[nH]c12
3. COc1cc(C)cc(OC)c1/C=C\C(=O)O
4. Cn1c(=S)c2[nH]c(SCCN3CCCC3)nc2n(C)c1=O

["-18% (inactive)", "-2.15% (inactive)", "12.4% (inactive)", "-5.98% (inactive)"]

###

Please provide measured activity change, negative = inhibition for the entries that follow.
- test_protocol: AP1 Signaling Pathway (AID 357);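 note: ME-180 reporter cells stimulated with EGF at its EC50 level; % is set by controls: 0 for no effect and ±100 for the full control effect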
- recorded_conditions: ME-180 (cervical carcinoma) AP-1-bla reporter, EGF-induced, beta-lactamase ratio, 5 h; at 7.69 µM (top of the series) unless noted
Results filed as inconclusive are left out. Calls of active or inactive are those of the source. Calls follow the shape of the dose curve; as a rule, active = well fitted curve in either direction with a large enough effect (not every such curve was filed as active); inconclusive = small, poorly fitted or top-dose-only effect, or another doubt; inactive = flat fitted curve, though single readings scatter.

NS(=O)(=O)c1ccc(NCc2nc3ccccc3[nH]2)cc1 | 2.25% (inactive)
N=C(N)SCC(=O)O | -10.2% (inactive)
O=C(O)c1cccc(N=Nc2c(S(=O)(=O)O)ccc3c2C(=O)c2ccccc2C3=O)c1O | 9.86% (inactive)
CC(C)(CCC(C)(C)c1ccccc1)c1ccccc1 | -0.999% (inactive)
S=C(Nc1ccc2c(c1)Cc1ccccc1-2)Nc1ccc2c(c1)Cc1ccccc1-2 | -4.53% (inactive)
CCCCCCCCCCCCCCC/C=C\[C@H](O)[C@@H](NC(=O)CCCCCCCCCCCCC)OC (tested in a mixture with another compound) | 15.5% [at 38 µM] (inactive)
NCCNCC1CCNCC1 | 2.94% (inactive)
CN1CCN(CCCBr)CC1 | 5.14% (inactive)
O=C(O)c1ccc([N+]2=Cn3c(nc4ccccc43)C2)cc1 | -0.795% (inactive)
N#CC1(Nc2ccc(-c3ccc(NC4(C#N)CCCC4)cc3)cc2)CCCC1 | -7.74% (inactive)

For every item below, please supply its activity change, negative = inhibition.
1. C[C@@H](CCC(=O)O)C(=O)O
2. O=S(=O)(c1ccc(Br)cc1)N1CCN(S(=O)(=O)c2ccc(Br)cc2)CC1
3. Cc1cc2ncn(CC(=O)O)c2cc1C
4. O=S(=O)(O)c1cc(N=[N+]([O-])c2cc(S(=O)(=O)O)c3ccccc3c2)cc2ccccc12
5. O=C(O)c1ccccc1C(=O)Nc1cc2c(cc1Br)-c1ccccc1C2=O
6. Oc1c(Br)cc(CN(Cc2cc(Br)c(O)c(Br)c2)C2CCCCC2)cc1Br

1. 3.57% (inactive)
2. 14.8% (inactive)
3. -4.54% (inactive)
4. 5.38% (inactive)
5. -2.84% (inactive)
6. 11.3% (inactive)
